Measured IC50 by item
# Tested on: ApoB secretion, HepG2 cells
# ASSAY_DETAILS: Quantification of the secretion of ApoB (HepG2 cells, immunoprecipitation, scintillation counting)
# Format: cell-based
# EXPERIMENTAL_CONTEXT: Homo sapiens, HepG2, 24 h, 24 hours of incubation
Give just the numeric value; µM need not be written.

Sample records with IC50:
molecule="C=CCOC(=O)C(c1ccccc1)C1CCN(c2ccc(NC(=O)c3ccccc3-c3ccccc3)cc2)CC1 (stereo not shown)" subject_of_test="ApoB secretion, HepG2 cells" measured_value=0.403
molecule="COC(=O)C(c1ccccc1)N1CCN(c2ccc(NC(=O)c3cc(C)ccc3-c3ccc(C(F)(F)F)cc3)cc2)CC1 (stereo not shown)" subject_of_test="ApoB secretion, HepG2 cells" measured_value=0.105
molecule="O=C(Nc1ccc(N2CCC(C(C(=O)NCc3ccccc3)c3ccccc3)CC2)cc1)c1ccccc1-c1ccccc1Cl (stereo not shown)" subject_of_test="ApoB secretion, HepG2 cells" measured_value=0.0736

Q: Which value of IC50 has been reported for CCCNC(=O)C(c1ccccc1)C1CCN(c2ccc(NC(=O)c3ccccc3-c3ccc(C(C)(C)C)cc3)cc2)CC1 (stereo not shown) in the records?
A: 0.0502

Q: Then CCCNC(=O)C(c1ccccc1)C1CCN(c2ccc(NC(=O)c3ccccc3-c3ccc(F)cc3F)cc2)CC1 (stereo not shown) ?
A: 0.0794

###

Measured pIC50 by item
# Test system: ApoB secretion, HepG2 cells
# ASSAY_DETAILS: Quantification of the secretion of ApoB (HepG2 cells, immunoprecipitation, scintillation counting)
# Format: cell-based
# EXPERIMENTAL_CONTEXT: Homo sapiens, HepG2, 24 h, 24 hours of incubation
pIC50 here is simply -log10 of the concentration when that concentration is written in mol/L.

compound="COC(=O)C(c1ccccc1)N1CCC(c2ccc(NC(=O)c3ccccc3-c3ccc(C(F)(F)F)cc3)cc2)CC1 (stereo not shown)" experimental_endpoint=pIC50 measured_value=7.67

Q: Which value of pIC50 has been reported for CCCNC(=O)C(c1ccccc1)N1CCCN(c2ccc(NC(=O)c3ccccc3-c3ccc(C(F)(F)F)cc3)cc2)CC1 (stereo not shown) in the records?
A: 6.62

Q: Then O=C(Nc1ccc(N2CCC(C(C(=O)NCc3ccccc3)c3ccccc3)CC2)cc1)c1ccccc1Oc1ccccc1 (stereo not shown) ?
A: 6.66

Q: Then CCCNC(=O)C(c1ccccc1)C1CCN(c2ccc(NC(=O)c3ccccc3-c3ccccc3C(F)(F)F)cc2)CC1 (stereo not shown) ?
A: 6.44

###

Measured melting point by item
Give just the numeric value; °C need not be written.

molecule="COC(=O)C(c1ccccc1)N1CCN(c2ccc(NC(=O)c3ccccc3-c3ccccc3)cc2)CC1 (centres unmarked)" reading_unit=°C measured_value=125
molecule="COC(=O)C(c1ccccc1)N1CCC(c2ccc(NC(=O)c3ccccc3-c3ccc(C(F)(F)F)cc3)cc2)CC1 (centres unmarked) [Co. No. 41]" reading_unit=°C measured_value=138
molecule="O=C(Nc1ccc(N2CCC(C(C(=O)NCc3ccccc3)c3ccccc3)CC2)cc1)c1cccc2c1-c1ccccc1C2 (centres unmarked)" reading_unit=°C measured_value=202
molecule="COC(=O)C(c1ccccc1)C1CCN(c2ccc(NC(=O)c3ccccc3-c3ccc(C(F)(F)F)cc3)cc2)CC1 (centres unmarked)" reading_unit=°C measured_value=151
molecule="COC(=O)C(c1ccccc1)N1CCN(c2ccc(NC(=O)c3ccccc3-c3cccnc3)cc2)CC1 (centres unmarked)" reading_unit=°C measured_value=194

Q: Which value of melting point has been reported for CCNC(=O)C(c1ccccc1)N1CCN(c2ccc(NC(=O)c3ccccc3-c3ccc(C(F)(F)F)cc3)cc2)CC1 (centres unmarked) in the records?
A: 123

Q: Then CCCOC(=O)C(c1ccccc1)N1CCN(c2ccc(NC(=O)c3ccccc3-c3ccc(C(F)(F)F)cc3)cc2)CC1 (centres unmarked) ?
A: 151

Q: Then COC(=O)C(c1ccccc1)N1CCN(c2ccc(NC(=O)c3ccccc3-c3ccsc3)cc2)CC1 (centres unmarked) ?
A: 150

###

# System: ApoB secretion, HepG2 cells
# ASSAY_DETAILS: Quantification of the secretion of ApoB (HepG2 cells, immunoprecipitation, scintillation counting)
# Assay type: cell-based
# EXPERIMENTAL_CONTEXT: Homo sapiens, HepG2, 24 h, 24 hours of incubation
EXPERIMENTAL_ENDPOINT: pIC50
pIC50 here is simply -log10 of the concentration when that concentration is written in mol/L.

Sample records with pIC50:
compound="CC(C)=CCOC(=O)C(c1ccccc1)C1CCN(c2ccc(NC(=O)c3ccccc3-c3ccc(C(F)(F)F)cc3)cc2)CC1 (stereo not shown)" measured_value=6.28
compound="CCOC(=O)C(c1ccccc1)N1CCCN(c2ccc(NC(=O)c3ccccc3-c3ccc(C(F)(F)F)cc3)cc2)CC1 (stereo not shown)" measured_value=6.45
compound="O=C(Nc1ccc(C2=CCN(C(C(=O)Nc3ccccc3)c3ccccc3)CC2)cc1)c1ccccc1-c1ccc(C(F)(F)F)cc1 (stereo not shown)" measured_value=7.00
compound="O=C(Nc1ccc(C2=CCN(C(C(=O)NCc3ccccc3)c3ccccc3)CC2)cc1)c1ccccc1-c1ccccc1 (stereo not shown)" measured_value=7.44

Q: I'm curious: which pIC50 was measured for CCNC(=O)C(c1ccccc1)N1CCN(c2ccc(NC(=O)c3c(F)cccc3-c3ccc(C(F)(F)F)cc3)cc2)CC1 (stereo not shown) tested on ApoB secretion, HepG2 cells?
A: 7.00

###

Measured pIC50 by item
# System: ApoB secretion, HepG2 cells
# ASSAY_DETAILS: Quantification of the secretion of ApoB (HepG2 cells, immunoprecipitation, scintillation counting)
# Type: cell-based
# EXPERIMENTAL_CONTEXT: Homo sapiens, HepG2, 24 h, 24 hours of incubation
pIC50 here is simply -log10 of the concentration when that concentration is written in mol/L.

compound="CCCNC(=O)C(c1ccccc1)C1CCN(c2ccc(NC(=O)c3ccccc3Cc3ccccc3)cc2)CC1 (stereo not shown)" experimental_endpoint=pIC50 measured_value=6.00
compound="O=C(Nc1ccc(N2CCC(C(C(=O)Nc3ccccc3)c3ccccc3)CC2)cc1)c1ccccc1-c1cccc(C(F)(F)F)c1 (stereo not shown)" experimental_endpoint=pIC50 measured_value=6.89
compound="CCCOC(=O)C(c1ccccc1)N1CCN(c2ccc(NC(=O)c3ccccc3-c3ccc(C(F)(F)F)cc3)cc2)CC1 (stereo not shown)" experimental_endpoint=pIC50 measured_value=7.19
compound="Cc1ccccc1-c1ccccc1C(=O)Nc1ccc(N2CCC(C(C(=O)NCc3ccccc3)c3ccccc3)CC2)cc1 (stereo not shown)" experimental_endpoint=pIC50 measured_value=7.16
compound="COc1ccc(-c2ccccc2C(=O)Nc2ccc(N3CCC(C(C(=O)Nc4ccccc4)c4ccccc4)CC3)cc2)cc1 (stereo not shown)" experimental_endpoint=pIC50 measured_value=6.41

Now look at this one.
Q: I'm curious: which pIC50 was measured for COC(=O)C(c1ccccc1)C1CCN(c2ccc(NC(=O)c3cccc(C)c3-c3ccc(CC(C)C)cc3)cc2)CC1 (stereo not shown) tested on ApoB secretion, HepG2 cells?
A: 7.66

###

# System: ApoB secretion, HepG2 cells
# ASSAY_DETAILS: Quantification of the secretion of ApoB (HepG2 cells, immunoprecipitation, scintillation counting)
# Assay type: cell-based
# EXPERIMENTAL_CONTEXT: Homo sapiens, HepG2, 24 h, 24 hours of incubation
Measured pIC50 by item
pIC50 here is simply -log10 of the concentration when that concentration is written in mol/L.

Q: Which value of pIC50 has been reported for O=C(Nc1ccc(C2CCN(C(C(=O)OCCc3ccccc3)c3ccccc3)CC2)cc1)c1ccccc1-c1ccc(C(F)(F)F)cc1 (centres unmarked) [Co. No. 266] in the records?
A: 7.59

###

# Tested on: ApoB secretion, HepG2 cells
# ASSAY_DETAILS: Quantification of the secretion of ApoB (HepG2 cells, immunoprecipitation, scintillation counting)
# Type: cell-based
# EXPERIMENTAL_CONTEXT: Homo sapiens, HepG2, 24 h, 24 hours of incubation
# Experimental: C.1. Quantification of the Secretion of ApoB HepG2 cells were cultured in 24-well plates in Minimal Essential Medium Rega 3 containing 10% fetal calf serum. […] At 70% confluency, the medium was changed and the test compound or carrier (dimethylsulfoxide, 0.4% final concentration) was added. […] Radioactivity in the pellet was quantified by liquid scintillation counting. […]
Measured IC50 by item

Sample records with IC50:
compound="CCCNC(=O)C(c1ccccc1)C1CCN(c2ccc(NC(=O)c3ccccc3-c3ccccc3)cc2)CC1 (stereo not shown)" experimental_endpoint=IC50 measured_value="≤ 30 nM"
compound="O=C(Nc1ccc(N2CCC(C(C(=O)Nc3ccccc3)c3ccccc3)CC2)cc1)c1cccc2c1Cc1ccccc1-2 (stereo not shown)" experimental_endpoint=IC50 measured_value="≥ 3000 nM"
compound="O=C(Nc1ccc(N2CCC(C(C(=O)NCc3ccccc3)c3ccccc3)CC2)cc1)c1cccc2c1-c1ccccc1C2 (stereo not shown)" experimental_endpoint=IC50 measured_value="106 nM"
compound="COC(=O)C(c1ccccc1)N1CCN(c2ccc(NC(=O)c3ccccc3-c3ccc(Cl)cc3)cc2)CC1 (stereo not shown)" experimental_endpoint=IC50 measured_value="106 nM"
compound="CCC(CC)OC(=O)C(c1ccccc1)C1CCN(c2ccc(NC(=O)c3ccccc3-c3ccc(C(F)(F)F)cc3)cc2)CC1 (stereo not shown)" experimental_endpoint=IC50 measured_value="> 3000 nM"

Q: Which value of IC50 has been reported for CCCNC(=O)C(c1ccccc1)N1CCC(c2ccc(NC(=O)c3ccccc3-c3ccc(C(F)(F)F)cc3)cc2)CC1 (stereo not shown) in the records?
A: ≤ 30 nM

Q: Then O=C(Nc1ccc(N2CCN(C(C(=O)Oc3ccccc3)c3ccccc3)CC2)cc1)c1ccccc1-c1ccc(C(F)(F)F)cc1 (stereo not shown) ?
A: 21.3 nM
